System: antibodies in sera from SARS patients (sera 1a, 1b, 2, 6, 37, 62, London, SARS-yellow, SARS-green)
Format: binding, human
Set-up: unit not given here
Reported Binding of serum 37 to linear peptides of protein N of SARS-CoV Urbani values follow for various sequences
Provide a numeric answer; units are not to be included.

Example cases with answers are listed next.
• QPTVTLLPAADMDDF = 1.1
• LIRQGTDYKHWPQIA = 0.8
• YLGTGPEASLPYGAN = 0.7

Consider the additional sequence presented here.
The value of Binding of serum 37 to linear peptides of protein N of SARS-CoV Urbani measured for the sequence "MDDFSRQLQNSMSGA" turned out to be 0.8

* * *

System: antibodies in sera from SARS patients (sera 1a, 1b, 2, 6, 37, 62, London, SARS-yellow, SARS-green)
Format: binding, human
assayReadout: Binding of serum 1b to looped/cyclic peptides of protein X2 of SARS-CoV Urbani
Provide a numeric answer; units are not to be included.

Example cases with answers are listed next.
- TSLLKTHRMCKYTQS: 0.3
- LIQQWIQFMMSRRRL: 0.5
- QWIQFMMSRRRLLAC: 0.4

The value of Binding of serum 1b to looped/cyclic peptides of protein X2 of SARS-CoV Urbani measured for the sequence "ILRIGTQVLKTMSLY" turned out to be 0.5

The value of Binding of serum 1b to looped/cyclic peptides of protein X2 of SARS-CoV Urbani measured for the sequence "CLCKHKKVSTNLCTH" turned out to be 0.3

The value of Binding of serum 1b to looped/cyclic peptides of protein X2 of SARS-CoV Urbani measured for the sequence "TALQELLIQQWIQFM" turned out to be 0.5

The value of Binding of serum 1b to looped/cyclic peptides of protein X2 of SARS-CoV Urbani measured for the sequence "IQLSLLKVTAFQHQN" turned out to be 0.6

The value of Binding of serum 1b to looped/cyclic peptides of protein X2 of SARS-CoV Urbani measured for the sequence "SSSLTSLLKTHRMCK" turned out to be 0.4

The value of Binding of serum 1b to looped/cyclic peptides of protein X2 of SARS-CoV Urbani measured for the sequence "LQELLIQQWIQFMMS" turned out to be 0.5

The value of Binding of serum 1b to looped/cyclic peptides of protein X2 of SARS-CoV Urbani measured for the sequence "LKMLHSSSLTSLLKT" turned out to be 0.5

The value of Binding of serum 1b to looped/cyclic peptides of protein X2 of SARS-CoV Urbani measured for the sequence "QSTALQELLIQQWIQ" turned out to be 0.5

The value of Binding of serum 1b to looped/cyclic peptides of protein X2 of SARS-CoV Urbani measured for the sequence "PKFTTSLSLHKLLQT" turned out to be 0.4

The value of Binding of serum 1b to looped/cyclic peptides of protein X2 of SARS-CoV Urbani measured for the sequence "SLLKVTAFQHQNSKK" turned out to be 0.2

The value of Binding of serum 1b to looped/cyclic peptides of protein X2 of SARS-CoV Urbani measured for the sequence "TSLSLHKLLQTLVLK" turned out to be 0.4

The value of Binding of serum 1b to looped/cyclic peptides of protein X2 of SARS-CoV Urbani measured for the sequence "CKYTQSTALQELLIQ" turned out to be 0.6

The value of Binding of serum 1b to looped/cyclic peptides of protein X2 of SARS-CoV Urbani measured for the sequence "SPKFTTSLSLHKLLQ" turned out to be 0.5

* * *

System: control sera (pooled serum of ten healthy LUMC hospital workers; commercial negative donor pooled serum from the Dutch bloodbank)
Type: binding, human
Set-up: unit not given here
Reported Binding of Control serum LUMC to looped peptides values follow for various sequences
Provide a numeric answer; units are not to be included.

* RQEEVQQELYSPLFL | 0.9
* PKFTTSLSLHKLLQT | 0.4
* NSPARMASGGGETAL | 0.4
* PNVQIHTIDGSSGVA | 0.5

Consider the additional sequence presented here.
The value of Binding of Control serum LUMC to looped peptides measured for the sequence "SQIQLSLLKVTAFQH" turned out to be 0.6

* * *

System: antibodies in sera from SARS patients (sera 1a, 1b, 2, 6, 37, 62, London, SARS-yellow, SARS-green)
Type: binding, human
Parameters: unit not given here
Could you please mark met for values of Binding of serum 62 to looped/cyclic peptides of protein N of SARS-CoV Urbani below 0.6 and not met for values at or above it?

Reference set (3 entries):
• GIVWVATEGALNTPK = met
• GPEQTQGNFGDQDLI = met
• SAAEASKKPRQKRTA = met

Inquiry: Please state whether Binding of serum 62 to looped/cyclic peptides of protein N of SARS-CoV Urbani is below 0.6 for "RGGDGKMKELSPRWY"
Reply text: met

Inquiry: Please state whether Binding of serum 62 to looped/cyclic peptides of protein N of SARS-CoV Urbani is below 0.6 for "LRFPRGQGVPINTNS"
Reply text: met

Inquiry: Please state whether Binding of serum 62 to looped/cyclic peptides of protein N of SARS-CoV Urbani is below 0.6 for "KKKKTDEAQPLPQRQ"
Reply text: met

* * *

Test system: rabbit serum obtained by immunizing a rabbit with the SARS-CoV strain Frankfurt 1
Assay type: binding
Parameters: unit not given here
condition met means recorded Binding of a rabbit serum to linear peptides is 0.4 or above; condition not met means it is below 0.4.

Reference set (5 entries):
* LKMLHSSSLTSLLKT | condition not met
* QFMMSRRRLLACLCK | condition met
* VHGYFTEVYYQLEST | condition not met
* YFTEVYYQLESTQIT | condition not met
* RHSGVKDYVVVHGYF | condition not met

Inquiry: Is Binding of a rabbit serum to linear peptides at least 0.4? Consider "WLVIGVAFLAVFQSA"
Reply text: condition met

Inquiry: Is Binding of a rabbit serum to linear peptides at least 0.4? Consider "AISPKFTTSLSLHKL"
Reply text: condition not met

Inquiry: Is Binding of a rabbit serum to linear peptides at least 0.4? Consider "VTDTIVVTEGDGIST"
Reply text: condition not met

* * *

System: antibodies in sera from SARS patients (sera 1a, 1b, 2, 6, 37, 62, London, SARS-yellow, SARS-green)
Assay type: binding, human
Reported Binding of serum 1b to looped/cyclic peptide (PEPSCAN-ELISA) values follow for various sequences
Provide a numeric answer; units are not to be included.

* CINACRIIMRCWLCW | 0.4

The value of Binding of serum 1b to looped/cyclic peptide (PEPSCAN-ELISA) measured for the sequence "DLFMRFFTLGSITAQ" turned out to be 0.3

The value of Binding of serum 1b to looped/cyclic peptide (PEPSCAN-ELISA) measured for the sequence "VTIYSHLLLVAAGME" turned out to be 0.4

The value of Binding of serum 1b to looped/cyclic peptide (PEPSCAN-ELISA) measured for the sequence "LFMRFFTLGSITAQP" turned out to be 0.3

* * *

System: antibodies in sera from SARS patients (sera 1a, 1b, 2, 6, 37, 62, London, SARS-yellow, SARS-green)
Assay type: binding, human
Design: unit not given here
Reported Binding of serum 37 to looped/cyclic peptides of protein X5 of SARS-CoV Urbani values follow for various sequences
Provide a numeric answer; units are not to be included.

Example cases with answers are listed next.
* PAGGALIARCWYLHE | 0.7
* AWLCALGKVLPFHRW | 0.5
* CALGKVLPFHRWHTM | 0.5
* QTAAFRDVLVVLNKR | 0.6

The value of Binding of serum 37 to looped/cyclic peptides of protein X5 of SARS-CoV Urbani measured for the sequence "GALIARCWYLHEGHQ" turned out to be 0.4

The value of Binding of serum 37 to looped/cyclic peptides of protein X5 of SARS-CoV Urbani measured for the sequence "LIARCWYLHEGHQTA" turned out to be 0.3

The value of Binding of serum 37 to looped/cyclic peptides of protein X5 of SARS-CoV Urbani measured for the sequence "CLKILVRYNTRGNTY" turned out to be 0.5

The value of Binding of serum 37 to looped/cyclic peptides of protein X5 of SARS-CoV Urbani measured for the sequence "LPFHRWHTMVQTCTP" turned out to be 0.4

* * *

Tested on: antibodies in sera from SARS patients (sera 1a, 1b, 2, 6, 37, 62, London, SARS-yellow, SARS-green)
Format: binding, human
assayReadout: Binding of serum 1a to linear peptides of protein X1 of SARS-CoV Urbani
Provide a numeric answer; units are not to be included.

Example cases with answers are listed next.
- ATATIPLQASLPFGW: 0.9
- QASLPFGWLVIGVAF: 0.7
- YFLQCINACRIIMRC: 0.7
- YSHLLLVAAGMEAQF: 0.7
- KNPLLYDANYFVCWH: 0.8

The value of Binding of serum 1a to linear peptides of protein X1 of SARS-CoV Urbani measured for the sequence "VVTEGDGISTPKLKE" turned out to be 0.5

The value of Binding of serum 1a to linear peptides of protein X1 of SARS-CoV Urbani measured for the sequence "CNLLLLFVTIYSHLL" turned out to be 0.7

The value of Binding of serum 1a to linear peptides of protein X1 of SARS-CoV Urbani measured for the sequence "KIIALNKRWQLALYK" turned out to be 0.8
